- system: EGLN1
- test_method_notes: cell-based or functional assay
Where no end group is shown, it is not given here.
Decide using Activity (%)*: a value greater than or equal to 20% is Y, a smaller one is N.

Sample answers from the record:
# binder, discrete_label
measured = [
    ("DTDLDLEALAPYIPADDDFQ [DTDLDLEALApYIPADDDFQ]", "Y"),
    ("DTDLDLEMLCPYIPMDDDFQ (not fully specified; printed as DTDLDLEMLCpYIPMDDDFQ) [DTDLDLEMLCpYIPMDDDFQ]", "N"),
    ("DTDLDWEALAPYIPADDDFQ (not fully specified; printed as DTDLDWEALApYIPADDDFQ) [DTDLDWEALApYIPADDDFQ]", "Y"),
]

Okay, now this binder:
IN: Hi team, for DTDLDLEMLIPYIPMDDDFQ (not fully specified; printed as DTDLDLEMLIpYIPMDDDFQ) [DTDLDLEMLIpYIPMDDDFQ] , is the recorded Activity (%)* at or above 20%?
OUT: N
